Exercise: for every item that follows, state its recorded kcat/Km.
Substrate: O=C1CCC/C1=C\c1ccccc1
EXPERIMENTAL_PROTOCOL: purified protein
Format: biochemical, Bacillus subtilis
EXPERIMENTAL_PARAMETERS: 1.0 mM NADPH, 10 μM enzyme, PBS 100 mM, pH 7.5, 30 °C
Field format: number, assumed M⁻¹ s⁻¹, no unit text.

Just so you know, measured kcat/Km for YqjM (Bacillus subtilis subsp. subtilis str. 168; C26G/I69Y/Y28F) (protein, ene-reductase, FMN enzyme) ARKLFTPITIKDMTLKNRIVMSPMGMFSSHEKDGKLTPFHMAHYISRAIGQVGLIIVEASAVNPQGRYTDQDLGIWSDEHIEGFAKLTEQVKEQGSKIGIQLAHAGRKAELEGDIFAPSAIAFDEQSATPVEMSAEKVKETVQEFKQAAARAKEAGFDVIEIHAAHGYLIHEFLSPLSNHRTDEYGGSPENRYRFLREIIDEVKQVWDGPLFVRVSASDYTDKGLDIADHIGFAKWMKEQGVDLIDCSSGALVHADINVFPGYQVSFAEKIREQADMATGAVGMITDGSMAEEILQNGRADLIFIGRELLRDPFFARTAAKQLNTEIPAPVQYERGW came out at 220

Just so you know, measured kcat/Km for YqjM (Bacillus subtilis subsp. subtilis str. 168; I69Y) (protein, ene-reductase, FMN enzyme) ARKLFTPITIKDMTLKNRIVMSPMCMYSSHEKDGKLTPFHMAHYISRAIGQVGLIIVEASAVNPQGRYTDQDLGIWSDEHIEGFAKLTEQVKEQGSKIGIQLAHAGRKAELEGDIFAPSAIAFDEQSATPVEMSAEKVKETVQEFKQAAARAKEAGFDVIEIHAAHGYLIHEFLSPLSNHRTDEYGGSPENRYRFLREIIDEVKQVWDGPLFVRVSASDYTDKGLDIADHIGFAKWMKEQGVDLIDCSSGALVHADINVFPGYQVSFAEKIREQADMATGAVGMITDGSMAEEILQNGRADLIFIGRELLRDPFFARTAAKQLNTEIPAPVQYERGW came out at 150

Just so you know, measured kcat/Km for YqjM (Bacillus subtilis subsp. subtilis str. 168; C26G/I69Y/Y169F) (protein, ene-reductase, FMN enzyme) ARKLFTPITIKDMTLKNRIVMSPMGMYSSHEKDGKLTPFHMAHYISRAIGQVGLIIVEASAVNPQGRYTDQDLGIWSDEHIEGFAKLTEQVKEQGSKIGIQLAHAGRKAELEGDIFAPSAIAFDEQSATPVEMSAEKVKETVQEFKQAAARAKEAGFDVIEIHAAHGFLIHEFLSPLSNHRTDEYGGSPENRYRFLREIIDEVKQVWDGPLFVRVSASDYTDKGLDIADHIGFAKWMKEQGVDLIDCSSGALVHADINVFPGYQVSFAEKIREQADMATGAVGMITDGSMAEEILQNGRADLIFIGRELLRDPFFARTAAKQLNTEIPAPVQYERGW came out at 330
